Taken from patent US5516797A.

target: FK-506 binding protein (FKBP) (Homo sapiens, UniProt P62942)
Sequence (P62942 whole entry): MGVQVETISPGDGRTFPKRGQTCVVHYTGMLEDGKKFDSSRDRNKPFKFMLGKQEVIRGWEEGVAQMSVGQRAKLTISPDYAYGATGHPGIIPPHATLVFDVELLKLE
The entries below come with measured Kd values attached.

| Compound | Kd |
| --- | --- |
| O=C(C(=O)N1CCC[C@H]1C(=O)OCc1ccccc1)c1ccccc1 [Compound 2] | > 5 µM |
| COC(=O)C(=O)N1CCCC[C@H]1C(=O)OCCC1CCCCC1 [Compound 32] | > 40 µM |
| CC(C)(C)OC(=O)[C@@H]1CCCN1C(=O)C(=O)c1ccco1 [Compound 19] | > 500 µM |
| O=C(C(=O)N1CCCC[C@H]1C(=O)OCc1ccccc1)c1cccc([N+](=O)[O-])c1 [Compound 15] | > 75 µM |
| CCC(=O)C(=O)N1CCC[C@H]1C(=O)OCc1ccccc1 [Compound 41] | > 300 µM |
| COc1cc(C(=O)C(=O)N2CCCC[C@H]2C(=O)OCCCc2cn(C=O)c3ccccc23)cc(OC)c1OC [Compound 93] | 0.06 µM |
| O=C(C(=O)N1CCCC[C@H]1C(=O)OCc1ccccc1)c1ccccc1 [Compound 3, (S)-Benzyl N-(phenylglyoxyl)pipecolate] | > 2 µM |
| COc1ccc(/C=C/C(=O)N2CCCC[C@H]2C(=O)OCc2ccccc2)cc1 [Compound 112] | > 8 µM |
| COc1cc(C(=O)C(=O)N2CCCC[C@H]2C(=O)OCCCCc2c[nH]c3ccccc23)cc(OC)c1OC [Compound 94] | 0.05 µM |
| O=C(C(=O)N1CCCC[C@H]1C(=O)OCc1ccccc1)c1cccc(OCc2ccccc2)c1 [Compound 53] | 0.2 µM |
| COc1cc(/C=C/C(=O)N2CCC[C@H]2C(=O)OCc2ccccc2)cc(OC)c1OC [Compound 115] | > 25 µM |

* * *

Attribute: Kd
target: UniProtKB P62942
Result Type: Kd

| Molecule | Result Type | Result |
| --- | --- | --- |
| O=C(C(=O)N1CCCC[C@H]1C(=O)OCc1ccccc1)c1ccco1 [Compound 20, (S)-Benzyl N-(2-furylglyoxyl)pipecolate] | Kd | > 12 µM |
| COC(=O)C(=O)N1CCCC[C@H]1C(=O)OC/C(C)=C/c1ccc(OC)cc1 | Kd | > 30 µM |
| O=C(OCc1ccccc1)[C@@H]1CCCN1C(=O)/C=C/c1ccc2c(c1)OCO2 | Kd | > 15 µM |

* * *

This document collects Ki values reported for FK-506 binding protein (FKBP) (Homo sapiens, UniProt P62942).

| Substance Smiles | Ki (µM) |
| --- | --- |
| O=C(C(=O)N1CCCC[C@H]1C(=O)OCCCCCCc1ccccc1)c1ccccc1 | 0.5 |
| O=C(CC1CCCCC1)C(=O)N1CCCC[C@H]1C(=O)OCCCCc1ccccc1 | 0.12 |
| CC(C)CC(=O)C(=O)N1CCCC[C@H]1C(=O)OCc1ccccc1 | 0.9 |
| CC(C)(C)OC(=O)[C@@H]1CCCN1C(=O)C(=O)c1ccco1 | 200 |
| CC(C)(C)/C=C/C(=O)C(=O)N1CCCC[C@H]1C(=O)OCc1ccccc1 | 9 |
| COc1cc(C(=O)C(=O)N2CCCC[C@H]2C(=O)OCCCCCc2ccccc2)cc(OC)c1OC | 0.07 |
| O=C(C(=O)N1CCCC[C@H]1C(=O)OCc1ccccc1)c1cccc([N+](=O)[O-])c1 | 160 |
| O=C(OCc1ccccc1)[C@@H]1CCCCN1C(=O)/C=C/c1ccccc1 | 11 |
| COc1ccc(C(=O)C(=O)N2CCCC[C@H]2C(=O)OCCCCc2ccccc2)cc1C1CCCCC1 | 14 |
| O=C(C(=O)N1CCCC[C@H]1C(=O)OCc1ccccc1)c1c[nH]c2ccccc12 | 25 |
| O=C(C(=O)N1CCCC[C@H]1C(=O)OCc1ccccc1)c1ccccn1 | 130 |
